Numbers sourced from PubChem BioAssay (NCI).

Tested on: UACC-257 melanoma
Assay: NCI-60 one-dose screen, 48 h
Details: 10 µM unless noted
About 83,000 compounds went through this panel and 20% of them were active in at least one assay; those are over-represented in the sample as a whole. Active and inactive are the calls of the source. Rule for the calls: active = growth percent below 10; inactive = the rest.
Possible outcomes: active, inactive

molecule | label-class
COc1cc(-c2cccc([N+](=O)[O-])c2)c(-c2nc(-c3ccccc3)c(-c3ccccc3)n2C2CC2)cc1OC | inactive
O=C1CSC(c2ccc(O)cc2)N1c1nnc(Cn2cnnc2)o1 (centres undefined) | inactive
C=C1c2c(C)nn(-c3ccc(N)cc3)c2N(C)C23CC1C1(C)c4c(C)nn(-c5ccc(N)cc5)c4N(C)C(C)(CC12)C3 (centres undefined) | inactive
COc1cc(C(=O)/C=C/c2c(-c3ccc(F)cc3)nc3ncccn23)cc(OC)c1OC | inactive
CCOc1cccnc1/C=N/NC(N)=S | inactive
O=C(NCCOCCOCCOCCNC(=O)c1cc2c(o1)C(=O)c1ccccc1C2=O)NC12CC3CC(CC(C3)C1)C2 | active
CC(C)(C)CC(C)(C)Nc1c(-c2ccc(-c3ccccc3)cc2)nc2cnccn12 | inactive
COc1ccc(-c2nc3sc4c(c3c(=O)[nH]2)CCCC4)c2ccccc12 | inactive
Cc1cnc(Nc2ccc(OCCN3CCCC3)cc2)nc1NCc1ccco1 | inactive
